- Protocol conditions: in methanol, 299.81 K
Measured endpoint: solubility (mole fraction)
The answer should be written as a number, with no unit following it.

So, O=[N+]([O-])/N=C1\NCCN1Cc1ccc(Cl)nc1 ? Its solubility (mole fraction) was 0.00136

---

- Protocol conditions: in water, 329.34 K
Measured endpoint: solubility (mole fraction)

Form field solubility (mole fraction), entry O=[N+]([O-])/N=C1\NCCN1Cc1ccc(Cl)nc1 : 0.000119

---

- Protocol conditions: in acetone, 307.77 K
Measured endpoint: solubility (mole fraction)

Input O=[N+]([O-])/N=C1\NCCN1Cc1ccc(Cl)nc1 . Output solubility (mole fraction): 0.0175

---

- Protocol conditions: in dichloromethane, 307.8 K
Measured endpoint: solubility (mole fraction)
Lab note: write the figure by itself, no unit.

Reported solubility (mole fraction) of O=[N+]([O-])/N=C1\NCCN1Cc1ccc(Cl)nc1 : 0.0211

---

- Protocol conditions: in acetone, 305.05 K
Measured endpoint: solubility (mole fraction)
Lab note: record the figure alone, no unit after it.

Given item O=[N+]([O-])/N=C1\NCCN1Cc1ccc(Cl)nc1 , the value recorded as its solubility (mole fraction) is 0.0162

---

- Protocol conditions: in methanol, 315.38 K
Measured endpoint: solubility (mole fraction)
Lab note: record just the number, no unit beside it.

Short answer for O=[N+]([O-])/N=C1\NCCN1Cc1ccc(Cl)nc1 : solubility (mole fraction) was 0.00283

---

- Protocol conditions: in 2-butanone, 335.21 K
Measured endpoint: solubility (mole fraction)
Please give the numeric answer without any surrounding text.

The reported value for O=[N+]([O-])/N=C1\NCCN1Cc1ccc(Cl)nc1 in terms of solubility (mole fraction) is 0.0617

---

- Protocol conditions: in chloroform, 294.49 K
Measured endpoint: solubility (mole fraction)
# answer = number (no unit)

Reported solubility (mole fraction) ( O=[N+]([O-])/N=C1\NCCN1Cc1ccc(Cl)nc1 ) = 0.00916

---

- Protocol conditions: in acetone, 330.2 K
Measured endpoint: solubility (mole fraction)
Give the value as a plain number.

Entry O=[N+]([O-])/N=C1\NCCN1Cc1ccc(Cl)nc1 — recorded solubility (mole fraction) = 0.0353

---

- Protocol conditions: in dichloromethane, 300.05 K
Measured endpoint: solubility (mole fraction)
Please respond with just the number, no unit label.

Documented solubility (mole fraction) of O=[N+]([O-])/N=C1\NCCN1Cc1ccc(Cl)nc1 : 0.0166

---

- Protocol conditions: in methanol, 328.11 K
Measured endpoint: solubility (mole fraction)
Please give only the number in your answer, with no unit.

solubility (mole fraction) reported for this compound O=[N+]([O-])/N=C1\NCCN1Cc1ccc(Cl)nc1 : 0.0053

---

- Protocol conditions: in dichloromethane, 295.96 K
Measured endpoint: solubility (mole fraction)
Please reply with the number alone, leaving off any unit.

The compound O=[N+]([O-])/N=C1\NCCN1Cc1ccc(Cl)nc1 showed solubility (mole fraction) equal to 0.0146

---

- Protocol conditions: in ethanol, 323.96 K
Measured endpoint: solubility (mole fraction)
Enter the number alone.

Reported solubility (mole fraction) ( O=[N+]([O-])/N=C1\NCCN1Cc1ccc(Cl)nc1 ) = 0.00197

---

- Protocol conditions: in 1,2-dichloroethane, 347.1 K
Measured endpoint: solubility (mole fraction)
Reply: number alone, nothing else.

Field solubility (mole fraction) (entry O=[N+]([O-])/N=C1\NCCN1Cc1ccc(Cl)nc1 ) reads 0.0612
